measured.target: Estrogen receptor (Bos taurus) (UniProt Q9XSB5+P49884)
run.description: Displacement of [3H]-estradiol from calf uterine estrogen receptor
Type: protein assay
Consider the cut-off 10. If the recorded relative binding affinity (RBA) is strictly smaller, the label is y; if not, the label is n.

Field: example entries. Status: answers known.
{"compound": "CCc1cc(O)ccc1C(C)C(C)c1ccc(O)cc1CC (configuration not stated)", "class.assignment": "n"}
{"compound": "CC(c1cccc(O)c1)C(C)c1cccc(O)c1 (configuration not stated)", "class.assignment": "y"}
{"compound": "CC(c1cc(O)ccc1Cl)C(C)c1cc(O)ccc1Cl (configuration not stated)", "class.assignment": "y"}
{"compound": "CC(c1ccc(O)cc1O)C(C)c1ccc(O)cc1O (configuration not stated)", "class.assignment": "y"}
{"compound": "CC(c1cc(O)ccc1O)C(C)c1cc(O)ccc1O (configuration not stated)", "class.assignment": "y"}

Query: Dear reviewer, please state whether CC(c1ccc(O)cc1F)C(C)c1ccc(O)cc1F (configuration not stated) has relative binding affinity (RBA) strictly beneath 10.
Reply: n

Query: Determine whether this compound shows relative binding affinity (RBA) lower than 10 (ties excluded): Cc1cc(O)ccc1C(C)C(C)c1ccc(O)cc1C (configuration not stated)
Reply: n

###

measured.target: Estrogen receptor (Mus musculus) (UniProt O08537+P19785)
Sequence (O08537 whole entry, looked up): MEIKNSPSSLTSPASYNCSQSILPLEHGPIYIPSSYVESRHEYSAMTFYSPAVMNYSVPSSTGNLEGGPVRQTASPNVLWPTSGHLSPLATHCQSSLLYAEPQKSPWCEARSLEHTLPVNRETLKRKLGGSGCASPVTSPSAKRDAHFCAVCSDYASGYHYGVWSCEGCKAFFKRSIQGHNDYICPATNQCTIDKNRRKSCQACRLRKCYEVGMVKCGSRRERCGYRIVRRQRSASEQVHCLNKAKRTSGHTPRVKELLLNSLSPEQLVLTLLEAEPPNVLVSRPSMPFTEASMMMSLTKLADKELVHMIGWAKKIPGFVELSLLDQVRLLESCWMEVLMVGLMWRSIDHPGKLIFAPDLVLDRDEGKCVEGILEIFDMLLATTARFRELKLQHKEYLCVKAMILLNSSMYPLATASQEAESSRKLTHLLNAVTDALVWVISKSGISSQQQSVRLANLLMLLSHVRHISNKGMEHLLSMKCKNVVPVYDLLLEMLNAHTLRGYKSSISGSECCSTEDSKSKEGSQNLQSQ
Sequence (P19785 whole entry, looked up): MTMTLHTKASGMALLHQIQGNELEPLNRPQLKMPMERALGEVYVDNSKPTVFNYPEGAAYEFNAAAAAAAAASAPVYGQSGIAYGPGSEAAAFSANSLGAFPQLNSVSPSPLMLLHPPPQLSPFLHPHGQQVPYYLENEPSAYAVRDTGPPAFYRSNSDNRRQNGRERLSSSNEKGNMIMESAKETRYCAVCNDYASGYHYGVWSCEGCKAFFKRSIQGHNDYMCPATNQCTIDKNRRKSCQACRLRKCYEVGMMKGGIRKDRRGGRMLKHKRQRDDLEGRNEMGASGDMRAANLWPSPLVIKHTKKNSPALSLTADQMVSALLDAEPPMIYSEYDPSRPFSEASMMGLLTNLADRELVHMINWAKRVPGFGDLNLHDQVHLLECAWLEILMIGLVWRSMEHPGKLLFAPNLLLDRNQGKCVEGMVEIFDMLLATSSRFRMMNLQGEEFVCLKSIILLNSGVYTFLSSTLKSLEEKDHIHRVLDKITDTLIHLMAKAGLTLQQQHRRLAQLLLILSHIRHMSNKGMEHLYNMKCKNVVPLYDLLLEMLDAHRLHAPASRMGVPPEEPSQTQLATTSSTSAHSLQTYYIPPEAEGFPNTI
run.description: Uterotrophic effect in mice at 0 ug
Format: functional, tissue-based
Parameters: unit not given here
study.conditions: Uterus
Effect for assorted compounds
Form: value (number only, do not type unit).

Past entries and their recorded results:
{"compound": "CCc1cc(O)ccc1C(C)C(C)c1ccc(O)cc1CC (stereo unspecified)", "measured.target": "Estrogen receptor (Mus musculus) (UniProt O08537+P19785)", "quantity.kind": "Effect", "experimental.result": 12.5}
{"compound": "CC(c1ccc(O)cc1F)C(C)c1ccc(O)cc1F (stereo unspecified)", "measured.target": "Estrogen receptor (Mus musculus) (UniProt O08537+P19785)", "quantity.kind": "Effect", "experimental.result": 11.8}
{"compound": "Cc1cc(O)ccc1C(C)C(C)c1ccc(O)cc1C (stereo unspecified)", "measured.target": "Estrogen receptor (Mus musculus) (UniProt O08537+P19785)", "quantity.kind": "Effect", "experimental.result": 11.8}

Query: Answer with reported Effect of CC(c1ccc(O)cc1Cl)C(C)c1ccc(O)cc1Cl (stereo unspecified)
Reply: 11.8

Query: Give recorded Effect. CC(c1cccc(O)c1)C(C)c1cccc(O)c1 (stereo unspecified)
Reply: 11.9

Query: Specify reported Effect for the compound shown: CC(c1ccc(O)cc1O)C(C)c1ccc(O)cc1O (stereo unspecified)
Reply: 12.5

###

measured.target: Estrogen receptor (Mus musculus) (UniProt O08537+P19785)
run.description: Uterotrophic effect in mice at 1 ug
Format: functional, tissue-based
Design: unit not given here
study.conditions: Uterus
quantity.kind: Effect
Returns: the value as a bare number; no unit string appended.

{"molecule": "CC(c1ccc(O)cc1O)C(C)c1ccc(O)cc1O (centres undefined)", "experimental.result": 15.4}
{"molecule": "CC(c1ccc(O)cc1Cl)C(C)c1ccc(O)cc1Cl (centres undefined)", "experimental.result": 41.6}
{"molecule": "CC(c1ccc(O)cc1F)C(C)c1ccc(O)cc1F (centres undefined)", "experimental.result": 50.2}

Read the next record carefully.
Query: Please report Effect with Estrogen receptor (Mus musculus) (UniProt O08537+P19785) for item CCc1cc(O)ccc1C(C)C(C)c1ccc(O)cc1CC (centres undefined) .
Reply: 38.8

###

measured.target: Estrogen receptor (Mus musculus) (UniProt O08537+P19785)
run.description: Uterotrophic effect in mice at 100 ug
Type: functional, tissue-based
study.conditions: Uterus
Decision: Effect beneath 30 gives fulfilled; Effect meeting or exceeding 30 gives not fulfilled.

For orientation, consider the following solved cases.
{"compound": "Cc1ccc(O)cc1C(C)C(C)c1cc(O)ccc1C (stereo not given)", "class.assignment": "fulfilled"}
{"compound": "CC(c1ccc(O)cc1)C(C)c1ccc(O)cc1 (stereo not given)", "class.assignment": "not fulfilled"}

Query: Decide: Effect of CCc1cc(O)ccc1C(C)C(C)c1ccc(O)cc1CC (stereo not given) strictly below 30?
Reply: not fulfilled

Query: Dear colleague, could you confirm whether Effect of CC(c1cc(O)ccc1Cl)C(C)c1cc(O)ccc1Cl (stereo not given) falls below 30? Thanks.
Reply: not fulfilled

Query: Identify whether the compound CC(c1ccc(O)cc1O)C(C)c1ccc(O)cc1O (stereo not given) records Effect below 30.
Reply: fulfilled

###

# reported Effect; entries follow
measured.target: Estrogen receptor (Mus musculus) (UniProt O08537+P19785)
run.description: Uterotrophic effect in mice at 10 ug
Assay type: functional, tissue-based
Set-up: unit not given here
study.conditions: Uterus

Worked examples, 3 compounds total:
{"compound": "CC(c1ccc(O)cc1Cl)C(C)c1ccc(O)cc1Cl (centres undefined)", "measured.target": "Estrogen receptor (Mus musculus) (UniProt O08537+P19785)", "Effect": 40.7}
{"compound": "CC(c1ccc(O)cc1F)C(C)c1ccc(O)cc1F (centres undefined)", "measured.target": "Estrogen receptor (Mus musculus) (UniProt O08537+P19785)", "Effect": 51.4}
{"compound": "CCc1cc(O)ccc1C(C)C(C)c1ccc(O)cc1CC (centres undefined)", "measured.target": "Estrogen receptor (Mus musculus) (UniProt O08537+P19785)", "Effect": 45.2}

Query: Enter Effect (test system Estrogen receptor (Mus musculus) (UniProt O08537+P19785)) for CC(c1ccc(O)cc1O)C(C)c1ccc(O)cc1O (centres undefined)
Reply: 20.3

###

measured.target: Estrogen receptor (Mus musculus) (UniProt O08537+P19785)
run.description: Antiuterotrophic effect in mice at 500 ug
Assay type: functional
Design: unit not given here
Catalogue of Effect values
Respond numerically, and do not add a unit to the figure.

Worked cases, Effect given:
{"compound": "CC(c1ccc(O)cc1O)C(C)c1ccc(O)cc1O (centres undefined)", "Effect": 38.7}
{"compound": "CC(c1cccc(O)c1)C(C)c1cccc(O)c1 (centres undefined)", "Effect": 36.5}

Query: Tell me its Effect given CC(c1cc(O)ccc1Cl)C(C)c1cc(O)ccc1Cl (centres undefined) as the entry.
Reply: 37.2

Query: Write down Effect measured for item Cc1ccc(O)cc1C(C)C(C)c1cc(O)ccc1C (centres undefined)
Reply: 35.6

###

measured.target: Estrogen receptor (Mus musculus) (UniProt O08537+P19785)
run.description: Antiuterotrophic effect in mice at 5 ug
Format: functional
Parameters: unit not given here
quantity.kind: Effect

As a guide, the following entries are already answered.
{"compound": "CC(c1cccc(O)c1)C(C)c1cccc(O)c1 (stereo not given)", "measured.target": "Estrogen receptor (Mus musculus) (UniProt O08537+P19785)", "experimental.result": 43}
{"compound": "CC(c1cc(O)ccc1Cl)C(C)c1cc(O)ccc1Cl (stereo not given)", "measured.target": "Estrogen receptor (Mus musculus) (UniProt O08537+P19785)", "experimental.result": 40.1}
{"compound": "Cc1ccc(O)cc1C(C)C(C)c1cc(O)ccc1C (stereo not given)", "measured.target": "Estrogen receptor (Mus musculus) (UniProt O08537+P19785)", "experimental.result": 45.4}
{"compound": "CC(c1ccc(O)cc1)C(C)c1ccc(O)cc1 (stereo not given)", "measured.target": "Estrogen receptor (Mus musculus) (UniProt O08537+P19785)", "experimental.result": 43.3}

Query: Report Effect, nothing else, for this compound: CC(c1ccc(O)cc1O)C(C)c1ccc(O)cc1O (stereo not given)
Reply: 50.6

###

// reported inhibition for each item listed
measured.target: Estrogen receptor (Mus musculus) (UniProt O08537+P19785)
run.description: Percent inhibition of uterotrophic effect in mice at 500 ug
Assay type: functional
Enter your answer as a number in %; do not include the unit.

Here is how some compounds turned out for inhibition.
{"compound": "CC(c1ccc(O)cc1)C(C)c1ccc(O)cc1 (centres undefined)", "inhibition, %": 28}
{"compound": "CC(c1ccc(O)cc1O)C(C)c1ccc(O)cc1O (centres undefined)", "inhibition, %": 26}
{"compound": "Cc1ccc(O)cc1C(C)C(C)c1cc(O)ccc1C (centres undefined)", "inhibition, %": 35}

Now look at this one.
Query: Please report inhibition with Estrogen receptor (Mus musculus) (UniProt O08537+P19785) for item CC(c1cc(O)ccc1Cl)C(C)c1cc(O)ccc1Cl (centres undefined) .
Reply: 30

###

measured.target: Estrogen receptor (Mus musculus) (UniProt O08537+P19785)
run.description: Antiuterotrophic effect in mice at 50 ug
Type: functional
Set-up: unit not given here
quantity.kind: Effect

{"molecule": "CC(c1ccc(O)cc1O)C(C)c1ccc(O)cc1O (centres undefined)", "experimental.result": 39.1}
{"molecule": "CC(c1cccc(O)c1)C(C)c1cccc(O)c1 (centres undefined)", "experimental.result": 39}
{"molecule": "CC(c1cc(O)ccc1Cl)C(C)c1cc(O)ccc1Cl (centres undefined)", "experimental.result": 39.3}

API: the following record is the query input.
Query: Look up and report measured Effect for this entry: Cc1ccc(O)cc1C(C)C(C)c1cc(O)ccc1C (centres undefined)
Reply: 40.6
